Reported Minimum Inhibitory Concentration (MIC) values for the following sequences.
tested on: E. coli (ATCC 11775); test: Broth microdilution assay (MIC); format: cell-based, Escherichia coli; conditions: Mueller-Hinton Broth, 2 × 10^4 CFU/mL, 18 h at 37°C, visible turbidity, complete growth inhibition
// return numeric value only (unit: mg/L, not printed)

ISHNHLTAASITHVKNRGKYIYMHLKFRKTNVLI [ISGCock_Contig16_2060, synthetic peptide, AMPA stretch of a predicted novel AMP from a P. americana transcript] = 16
ANLLRHKVYGYCVLGPKGSSLGGIHGTWHDHHCSLIQRNPSTSTKGN [ISGCock_Contig13_3006, synthetic peptide, AMPA stretch of a predicted novel AMP from a P. americana transcript] = 64
VVGRKHSILNCIPYLKKKKIMRLVESESIG [ISGCock_Contig12_4176, synthetic peptide, AMPA stretch of a predicted novel AMP from a P. americana transcript] = 8
HLYPCKLNLKLGKVPFHFLNLNHKGKSIMVNQQTCLYYIICQTR [ISGCock_Contig13_4610–1, synthetic peptide, first AMPA stretch of a predicted novel AMP from a P. americana transcript] = 64
LMLCKGFLRHSYKSIHERGTKRGKLCRISRLALSSLP [ISGCock_Contig10_4736–2, synthetic peptide, second AMPA stretch of a predicted novel AMP from a P. americana transcript] = 16
ALQICTRNMIDDRLPYVADNVRPGTFIKQQRKQKQQRHHTSGTRKRMAKG [ISGCock_Contig04_0915, synthetic peptide, AMPA stretch of a predicted novel AMP from a P. americana transcript] = 64

Incoming: Dear colleague, I am looking for the recorded Minimum Inhibitory Concentration (MIC) of the following sequence: RKKVWFIFHVCPKLKQRILSDTHAKNKCRLSPLLIKSTKIKNET [ISGCock_Contig16_4974, synthetic peptide, AMPA stretch of a predicted novel AMP from a P. americana transcript]
Outgoing: 16

Incoming: I'd like to know its Minimum Inhibitory Concentration (MIC). The sequence in question is MKTFLRLYRSLINKVLHV [ISGCock_Contig05_0593, synthetic peptide, AMPA stretch of a predicted novel AMP from a P. americana transcript]
Outgoing: 4

----------
test system: C. albicans (ATCC 14053); type: cell-based, Candida albicans; settings: Mueller-Hinton Broth, 2 × 10^4 CFU/mL, 18 h at 37°C, visible turbidity, complete growth inhibition
value type: Minimum Inhibitory Concentration (MIC) (µg/mL)
# number only, unit µg/mL dropped from output

Below, 2 sequences whose answers are already recorded.
RKKVWFIFHVCPKLKQRILSDTHAKNKCRLSPLLIKSTKIKNET [ISGCock_Contig16_4974, synthetic peptide, AMPA stretch of a predicted novel AMP from a P. americana transcript] = 16
KRMKLNAKKLSFCDHLNSYLNLSPTLFIHNSSKQWSHWLWHNGIRI [ISGCock_Contig15_1337–2, synthetic peptide, second AMPA stretch of a predicted novel AMP from a P. americana transcript] = 64

Incoming: What value of measured Minimum Inhibitory Concentration (MIC) is listed for LMLCKGFLRHSYKSIHERGTKRGKLCRISRLALSSLP [ISGCock_Contig10_4736–2, synthetic peptide, second AMPA stretch of a predicted novel AMP from a P. americana transcript] ?
Outgoing: 32

Incoming: Item ANLLRHKVYGYCVLGPKGSSLGGIHGTWHDHHCSLIQRNPSTSTKGN [ISGCock_Contig13_3006, synthetic peptide, AMPA stretch of a predicted novel AMP from a P. americana transcript] has what recorded Minimum Inhibitory Concentration (MIC)?
Outgoing: 64

Incoming: Sample VVGRKHSILNCIPYLKKKKIMRLVESESIG [ISGCock_Contig12_4176, synthetic peptide, AMPA stretch of a predicted novel AMP from a P. americana transcript] — what was its Minimum Inhibitory Concentration (MIC)?
Outgoing: 8

----------
test system: E. coli (ATCC 11775); experiment: Broth microdilution assay (MIC); type: cell-based, Escherichia coli; conditions: Mueller-Hinton Broth, 2 × 10^4 CFU/mL, 18 h at 37°C, visible turbidity, complete growth inhibition
value type: Minimum Inhibitory Concentration (MIC)

KRMKLNAKKLSFCDHLNSYLNLSPTLFIHNSSKQWSHWLWHNGIRI [ISGCock_Contig15_1337–2, synthetic peptide, second AMPA stretch of a predicted novel AMP from a P. americana transcript] = >64 µg/mL
CNYISFFRKCKNSQSTMYGCHRMNKCVFSSY [ISGCock_Contig07_3736–1, synthetic peptide, first AMPA stretch of a predicted novel AMP from a P. americana transcript] = >64 µg/mL

Next sequence, Minimum Inhibitory Concentration (MIC) to be filled in.
Incoming: State the recorded Minimum Inhibitory Concentration (MIC) for this entry: KRMKLNAKKLSFCDHLNSYLNLSPTLFIHNSSKQWSHWLWHNGIRI [ISGCock_Contig15_1337–1, synthetic peptide, first AMPA stretch of a predicted novel AMP from a P. americana transcript]
Outgoing: >64 µg/mL
